Below, each entry is listed alongside its reported GI50.
# Tested on: T47D
# PROTOCOL_DESCRIPTION: NCI tumour cell line growth inhibition, 48 h
Active and inactive are the calls of the source. Cut-off read from the data, not from the text of the source: active = GI50 up to about 1.1 µM and inactive = higher.

Task item: Field request: GI50 | item: `O=c1c2ccccc2n2c(S)nnc2n1-c1ccccc1`
Reply: > 100 µM (inactive)

Task item: # iterate: `CCOP(=O)(/C=C\n1ccc(=O)[nH]c1=O)OCC`
Reply: > 100 µM (inactive)

Task item: # iterate: `O=C(C/N=C(\CN(c1ccccc1)c1ccccc1)Oc1c(Cl)cc(Cl)cc1Cl)n1cnc2ccccc21`
Reply: 33.3 µM (inactive)

Task item: # iterate: `CNC(=O)c1nnn(C2CCCCC2)c1S`
Reply: > 100 µM (inactive)

Task item: # iterate: `COC(=O)[C@]12CC[C@H]3CN(C(=O)OCc4ccccc4)[C@H]([C@H]31)[C@H](c1ccco1)N2S(=O)(=O)c1ccc(C)cc1`
Reply: 27.6 µM (inactive)

Task item: # iterate: `CC(C)=CCC[C@@H](C)/C=C/C=C(\C)C(=O)CC[C@@H]1CC[N@+]2(C)CCCC[C@H]12`
Reply: > 100 µM (inactive)

* * *

Below, each entry is listed alongside its reported GI50.
# Tested on: MCF7
# PROTOCOL_DESCRIPTION: NCI tumour cell line growth inhibition, 48 h
Activity calls are given as the source filed them. Cut-off read from the data, not from the text of the source: active = GI50 up to about 1.1 µM and inactive = higher.

Task item: Field request: GI50 | item: `CCCCCCc1nn2c(-c3ccncc3)nnc2s1`
Reply: > 10 µM (inactive)

Task item: # iterate: `O=c1c2ccccc2n2c(S)nnc2n1-c1ccccc1`
Reply: > 100 µM (inactive)

Task item: # iterate: NC1CC(=O)c2csc(Cl)c21 (configuration not stated)
Reply: 17.5 µM (inactive)

Task item: # iterate: CC(=O)N1c2ccccc2C2=NN=C(N(C)C)SC21 (configuration not stated)
Reply: 4.06 µM (inactive)

Task item: # iterate: `O=[N+]([O-])c1cc(-[n+]2cc([O-])on2)ccc1F`
Reply: 12.8 µM (inactive)

Task item: # iterate: `CNC(=O)N1CN(c2ccccc2)C2(CCN(CCCC(=O)c3ccc(F)cc3)CC2)C1=O`
Reply: 3.62 µM (inactive)

Task item: # iterate: Nc1nc(=O)n(C2OC(CO)C(O)C2O)c2ncc(-c3ccc(-c4ccccc4)cc3)nc12 (configuration not stated)
Reply: 31.3 µM (inactive)

Task item: # iterate: `CC(C)(C)OC(=O)N(CCCCNC(=O)C(F)(F)F)CCCNC(=O)C(F)(F)F`
Reply: > 100 µM (inactive)

Others:
Task item: Field request: GI50 | item: FC(F)(F)c1ccc2c(c1)nc(-c1ccccc1)n2CC1CCCN2CCCCC12 (configuration not stated)
Reply: 17.1 µM (inactive)

Task item: # iterate: `O=C(N/N=C\c1cccc2ccccc12)Nc1ccc([N+](=O)[O-])cc1`
Reply: 9.51 µM (inactive)

Task item: # iterate: `ClCc1nc2ccccc2[nH]1`
Reply: 99.1 µM (inactive)

Task item: # iterate: `Cn1c(=O)[nH]n(-c2ccc3ccccc3c2)c1=O`
Reply: > 100 µM (inactive)

Task item: # iterate: `COc1ccc2c(c1)/C(=C\c1c(Cl)n(-c3ccccc3)c3ccccc13)C(=O)N2`
Reply: 3.45 µM (inactive)

Task item: # iterate: `CCCCc1nc(C)oc1C(C)C`
Reply: > 100 µM (inactive)

Task item: # iterate: `N=C(N)c1ccc(/N=N\c2c(O)c(C(=O)Nc3ccccc3)cc3ccccc23)cc1`
Reply: 9.86 µM (inactive)

Task item: # iterate: O=C(OCC1OC(c2nn[nH]n2)C(OC(=O)c2ccccc2)C1OC(=O)c1ccccc1)c1ccccc1 (configuration not stated)
Reply: 41.2 µM (inactive)

Task item: # iterate: CN1N=C(c2ccccc2)C(C(c2ccccc2[N+](=O)[O-])C2C(=O)N(C)N=C2c2ccccc2)C1=O (configuration not stated)
Reply: 47.1 µM (inactive)

Task item: # iterate: `CCN(CC)c1cc2c3c(c1)CCCN3CCC2`
Reply: > 10 µM (inactive)

Task item: # iterate: Cc1ccc(OP(=O)(Oc2ccc(C)cc2)N2C=Cc3ccccc3C2C#N)cc1 (configuration not stated)
Reply: > 100 µM (inactive)

* * *

Below, each entry is listed alongside its reported GI50.
# Tested on: Malme-3M
# PROTOCOL_DESCRIPTION: NCI tumour cell line growth inhibition, 48 h
Active and inactive are the calls of the source. No stated cut-off is given here; in the data, active = GI50 up to about 1.1 µM and inactive = higher.

Task item: Field request: GI50 | item: `O=C(Nc1ccccc1C(=O)O)/C(=C/c1ccccc1)NC(=O)c1ccccc1`
Reply: > 100 µM (inactive)

Turning to the following compound.
Task item: Field request: GI50 | item: CC(Oc1ccc(OCC2CCCCC2)cc1)C(=O)NCCO (stereo unspecified)
Reply: > 100 µM (inactive)

* * *

# System: SNB-75
# PROTOCOL_DESCRIPTION: NCI tumour cell line growth inhibition, 48 h
Activity calls are given as the source filed them. Cut-off read from the data, not from the text of the source: active = GI50 up to about 1.1 µM and inactive = higher.
Tick one outcome: Y for active, N for inactive

Worked cases, answers included:
Task item: Record request — test call for CC1=C(/C=C/C(C)=C/C=C/C(C)=C/C(=O)Nc2ccc(O)cc2)C(C)(C)CCC1 [FENRETINIDE]
Reply: N

Task item: # iterate: COC(=O)C1=CC2C(=O)c3ccccc3C1(c1ccccc1)N2C1CCCCC1 (stereo unspecified)
Reply: N

Task item: # iterate: `NS(=O)(=O)c1nnc(/N=C(/CCC(=O)O)C(=O)O)s1`
Reply: N

Others:
Task item: Record request — test call for COC(=O)N1C2C(C[C@@]1(C)C(=O)OC)c1ccccc1N2S(=O)(=O)c1ccccc1 (stereo partly specified)
Reply: N

Task item: # iterate: `O=C(O)c1ccccc1/C=N/N=C1NCCCCN1`
Reply: N

Task item: # iterate: Clc1ccc(C2=NNC(c3cccc(Cl)c3)C2)cc1 (stereo unspecified)
Reply: N

Task item: # iterate: CC(C)=CC(=O)OC1C2C(C)=CC(O)C(O)C2(C)C2C3(O)OCC24C(CC(=O)OC14)C(C)C3O (stereo unspecified)
Reply: Y

Task item: # iterate: `CC(C)=CCC/C(=C/CC/C(C)=C/CCc1ccoc1)C(=O)O`
Reply: N

Task item: # iterate: `CCOC(=O)NC(=O)c1cn(CC(=O)NCC(=O)NCC(=O)N2CCN(CCn3c(C)nc(C(N)=O)c3N)CC2)c(=O)[nH]c1=O`
Reply: N

Task item: # iterate: `CN(C)CCCNC(=O)N/N=C/c1cccc([N+](=O)[O-])c1`
Reply: N

Task item: # iterate: `O=C(NCCCCCCNC(=O)c1cccc2ccccc12)c1cccc2ccccc12`
Reply: N

Task item: # iterate: `COc1cc2c(cc1O)NC(=S)[C@@H]1CCCN1C2=O`
Reply: N

Task item: # iterate: `O=C1C=Cc2ncccc2C1=O`
Reply: N

Task item: # iterate: Nc1nc(=O)n(C2OC(CO)C(O)C2O)c2ncc(-c3ccc(-c4ccccc4)cc3)nc12 (stereo unspecified)
Reply: N

Task item: # iterate: `O=C(O)c1cc(O)c2c(c1)Cc1cccc(O)c1C2=O`
Reply: N

Task item: # iterate: `CS/C(C)=N/OC(=O)NCCCCNc1ccc(N=[N+]=[N-])cc1`
Reply: N

Task item: # iterate: `C1CSCCCSCCCSCCCSCCCSC1`
Reply: N

Task item: # iterate: COC(=O)/C(=N\NC(N)=S)C(C(=O)OC)C(=O)C(=O)Nc1ccc(C)cc1 (stereo unspecified)
Reply: N

* * *

# System: SK-MEL-2
# PROTOCOL_DESCRIPTION: NCI tumour cell line growth inhibition, 48 h
Activity calls are given as the source filed them. Cut-off read from the data, not from the text of the source: active = GI50 up to about 1.1 µM and inactive = higher.
Tick one outcome: active, inactive

Task item: Record request — test call for `CCO/N=C\c1ccc2oc(-c3ccccc3)cc(=O)c2c1`
Reply: active

Task item: # iterate: `COc1ccc([C@@H]2CC(=O)N2)cc1`
Reply: inactive

Task item: # iterate: `CCSc1c2ccccc2c(-c2nc(F)nc(F)n2)n1CCc1ccccc1`
Reply: inactive

Task item: # iterate: `Cc1c2cccc-2ccc2c3ccccc3n(C(=O)c3ccc(Cl)cc3)c12`
Reply: inactive

Task item: # iterate: `COC(=O)[C@]12CC[C@H]3CN(C(=O)OCc4ccccc4)[C@H]([C@H]31)[C@H](c1ccco1)N2S(=O)(=O)c1ccc(C)cc1`
Reply: inactive

Others:
Task item: Record request — test call for COc1ccc2c3c(n(Cc4ccccc4)c(=O)c2c1)-c1cc(OC)c(OC)cc1C3C (stereo unspecified)
Reply: inactive

Task item: # iterate: `Cc1cc2c(cc1C)[n+]([O-])c(C(=O)/C=C/c1ccc(Cl)cc1)c(C)[n+]2[O-]`
Reply: inactive

Task item: # iterate: `O=C(CCCN1CCC2(CC1)C(=O)NC(=O)N2c1ccccc1)c1ccc(F)cc1`
Reply: inactive

Task item: # iterate: COC1C2C[C@@H](O)CCC2C(C(=O)OCCl)C[C@H]1O (stereo partly specified)
Reply: inactive

Task item: # iterate: `CC(C)=CC(=O)Cc1nc2cc(C)c(C)cc2[nH]c1=O`
Reply: inactive

Task item: # iterate: C1=CC2C=CC(C=C1)P2c1ccccc1 (stereo unspecified)
Reply: inactive
